B1: VH:VL chains; a variant is named by its letters at X, in order (parent)
chain 1: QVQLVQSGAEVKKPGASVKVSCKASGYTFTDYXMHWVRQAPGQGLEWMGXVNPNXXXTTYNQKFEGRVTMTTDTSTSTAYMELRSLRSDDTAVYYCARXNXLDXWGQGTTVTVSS
chain 2: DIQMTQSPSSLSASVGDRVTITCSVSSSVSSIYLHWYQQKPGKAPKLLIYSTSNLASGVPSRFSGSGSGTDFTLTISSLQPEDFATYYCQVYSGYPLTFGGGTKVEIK

Variants of: B1
method: yeast display scFab, FACS + sequencing
endpoint name: non-specific binding call

As a guide, the following entries are already answered.
mutant_label=VKRGSSAA endpoint_name="non-specific binding call" value=binds
mutant_label=STGEADAS endpoint_name="non-specific binding call" value="no binding"
mutant_label=DRAGDSLD endpoint_name="non-specific binding call" value="no binding"
mutant_label=VRAGDDGA endpoint_name="non-specific binding call" value="no binding"
mutant_label=YKRGDDLV endpoint_name="non-specific binding call" value="no binding"
mutant_label=YTATGFAV endpoint_name="non-specific binding call" value=binds
mutant_label=FRRGGASA endpoint_name="non-specific binding call" value=binds
mutant_label=YRTGDDVF endpoint_name="non-specific binding call" value="no binding"

# input Find the recorded non-specific binding call belonging to VKEGGSSA and report it.
# output no binding

# input Which non-specific binding call reading was recorded for the variant AARADDVY ?
# output no binding

# input Please look up its non-specific binding call: FRGRGAGA
# output binds

# input Any idea what its non-specific binding call is? The variant is VAGTGSSA
# output no binding

# input Any idea what its non-specific binding call is? The variant is YRKRGSSA
# output binds

# input Suppose we examine the variant DGGGASSA ; what non-specific binding call value has been reported?
# output no binding

# input Dear colleague, I am looking for the recorded non-specific binding call of the following variant: YRRRGAAY
# output binds

# input Requested read-out: non-specific binding call. Entry: YRKGDAGD
# output binds

# input Which non-specific binding call value is on record for AARADDWD ?
# output no binding

# input non-specific binding call lookup needed for YRRGGASA , thanks.
# output binds

# input I am curious: what non-specific binding call value has been reported for VKRGSSLF ?
# output binds

# input Give the measured non-specific binding call of SEEGTDGV .
# output no binding

# input Quick one: non-specific binding call for FRRGGSAD ?
# output binds

# input I would be grateful if you could share the reported non-specific binding call for VTGGGDGA .
# output no binding

# input Suppose we examine the variant FRRRGSLV ; what non-specific binding call value has been reported?
# output binds

# input Quick one: non-specific binding call for VRAGAAGV ?
# output binds

# input What value of measured non-specific binding call is listed for DGARNAGV ?
# output no binding

# input So what does the record say about non-specific binding call for DAARGDGA ?
# output no binding

# input // non-specific binding call lookup, key: FARAAALD
# output binds

# input Fill in the blank: the reported non-specific binding call of STTGGDGV is ____.
# output no binding
